Data provenance is patent US20230303994.

Here the recorded Selectivity is given for each entry.
test_system: pre-pro-human insulin

// below: answered proteins
trypsin variant SEQ ID NO: 117 (protein) IVGGYTCAANSIPYQVSLNSGSHRCGGSLINSQWVVSAAHCYKPRIQVRLGEHNIHVLEGNEQFINAAKIITHPNFNGNTLDNDIMLIKLSSPATLNSNVATVSLPTSCAAAGTECLISGWGNTASSGSSMPSLLQCLKAPVLSDSSCKSSYPGQITGNMICVGFLEGGKDACQGDSGGPVVCNGQLQGIVSSGYGCAQKNKPGVYTKVCNYVNWIQQTIAAN    >90%
trypsin variant SEQ ID NO: 128 (protein) IVGGYTCAANSIPYQVSLNSGSHRCGGSLINSQWVVSAAHCYKSRIQVRLGEHNIDVLEGNEQFINAAKIITHPNFNGNTLDNDIMLIKLSSPATLNSRVATVSLPRSCAAAGTECLISGWGNTKSSGSSPPSLLQCLKAPVLSDSSCKSSYPGQITGNMICVGFLEGGKDACQGDSGGPVVCNGQLQGIVSSGYGCAQKNKPGVYTKVCNYVNWIQQTIAAN    57.1%
trypsin variant SEQ ID NO: 33 (protein) IVGGYTCAANSIPYQVSLNSGSHRCGGSLINSQWVVSAAHCYKSRIQVRLGEHNIDVLEGNEQFINAAKIITHPNFNGNTLDNDIMLIKLSSPATLNSRVATVSLPTSCAAAGTECLISGWGNTKSSGSSYPSLLQCLKAPVLSDSSCKSSYPGQITGNMICVGFLEGGKDACQGDSGGPVVCNGQLQGIVSSGYGCAQKNKPGVYTKVCNYVNWIQQTIAAN    >90%
trypsin variant SEQ ID NO: 86 (protein) IVGGYTCAANSIPYQVSLNSGSHRCGGSLINSQWVVSAAHCYKPRIQVRLGEHNIDVLEGNEQFINAAKIITHPNFNPNTLDNDIMLIKLSSPATLNSAVATVSLPTSCAAAGTECLISGWGNTSSSGSSMPSLLQCLKAPVLSDSSCKSSYPGQITGNMICVGFLEGGKDACQGDSGGPVVCNGQLQGIVSSGYGCAQKNKPGVYTKVCNYVNWIQQTIAAN    >90%
trypsin variant SEQ ID NO: 52 (protein) IVGGYTCAANSIPYQVSLNSGSHRCGGSLINSQWVVSAAHCYKLRIQVRLGEHNIDVLEGNEQFINAAKIITHPNFNGNTLDNDIMLIKLSSPATLNSRVATVSLPRSCAAAGTECLISGWGNTKSSGSSYPSLLQCLKAPVLSDSSCKSSYPGQITGNMICVGFLEGGKDACQGDSGGPVVCNGQLQGIVSSGYGCAQKNKPGVYTKVCNYVNWIQQTIAAN    >90%

Would you kindly share the measured Selectivity for trypsin variant SEQ ID NO: 41 (protein) IVGGYTCAANSIPYQVSLNSGSHRCGGSLINSQWVVSAAHCYKSRIQVRLGEHNIDVLEGNEQFINAAKIITHPNFNGNTLDNDIMLIKLSSPATLNSRVATVSLPRSCAAAGTECLISGWGNTKSSGSSHPSLLQCLKAPVLSDSSCKSSYPGQITGNMICVGFLEGGKDACQGDSGGPVVCNGQLQGIVSSGYGCAQKNKPGVYTKVCNYVNWIQQTIAAN ?
>90%

Param item = trypsin variant SEQ ID NO: 130 (protein) IVGGYTCAANSIPYQVSLNSGSHRCGGSLINSQWVVSAAHCYKSRIQVRLGEHNIDVLEGNEQFINAAKIITHPNFNGNTLDNDIMLIKLSSPATLNSRVATVSLPRSCAAAGTECLISGWGNTKSSGSSYPSLLQCLKAPVLSDSSCKSSYPGQITGNMICVGFLEGGKDACQGDSGGPVVCNGQLQGIVSCGYGCAQKNKPGVYTKVCNYVNWIQQTIAAN ; retrieve measured Selectivity.
33.8%
